# ASSAY PROTOCOL: Study B: 17-AAG pharmacokinetics in subcutaneous interstitial fluid (tissue cages, HPLC)
# Type: in vivo
# MEASUREMENT CONDITIONS: both sexes, dog, subcutaneous interstitial fluid, iv, 150 mg/m2, AUC 0–8 h, Study B, dogs, 3rd administration of 150 mg/m^2 IV, mean ± SD
QUANTITY KIND: AUC(0-t) (ng·h/mL)
Answer in ng·h/mL, number only, no unit symbol.

### Prompt Check the records and state AUC(0-t) for C=CCNC1=C2C[C@@H](C)C[C@H](OC)[C@H](O)[C@@H](C)/C=C(\C)[C@H](OC(N)=O)[C@@H](OC)/C=C\C=C(/C)C(=O)NC(=CC1=O)C2=O
### Response 2730

All figures here come from paper PMC11206245.
